- test summary: Growth inhibition of human Ovarian cancer cells after 48 hrs
- Assay type: functional
- experimental conditions: Cancer cell lines
Would you mind telling me the reported GI50 of each entry?
Write down the numeric answer in µM and omit the unit.

**Query** Given the entry `CN1CCN(C(=O)c2c(NC(=O)NS(=O)(=O)c3ccccc3)sc3c2CCCCC3)CC1` , report its measured GI50.
**Result** 31.3

**Query** And the next one, `NNC(=O)c1c(NC(=O)NS(=O)(=O)c2ccccc2)sc2c1CCCCC2` ?
**Result** 1.5

**Query** And the next one, `O=C(Nc1sc2c(c1C(=O)NNc1ccc(Cl)cc1)CCCCC2)NS(=O)(=O)c1ccccc1` ?
**Result** 7.5

**Query** And the next one, `O=C(Nc1sc2c(c1C(=O)NNc1ccccc1)CCCCC2)NS(=O)(=O)c1ccccc1` ?
**Result** 15.2

**Query** And the next one, `O=c1[nH]c2sc3c(c2c(=O)n1S(=O)(=O)c1ccccc1)CCCCC3` ?
**Result** 34.2

**Query** And the next one, `O=C(Nc1sc2c(c1C(=O)NNc1ccc(Br)cc1)CCCCC2)NS(=O)(=O)c1ccccc1` ?
**Result** 10.2

**Query** And the next one, `CCCNC(=O)c1c(NC(=O)NS(=O)(=O)c2ccccc2)sc2c1CCCCC2` ?
**Result** 76.5

**Query** And the next one, `O=C(Nc1sc2c(c1C(=O)N1CCN(c3ccccc3)CC1)CCCCC2)NS(=O)(=O)c1ccccc1` ?
**Result** 36.2
